Test: Half life in dog at 2 mg/kg, po and 1 mg/kg, iv
Format: ADME, organism-based, Canis lupus familiaris
Details: in vivo
Property label: half-life (min)

[I] COc1cc2ncnc(Nc3cccc(Cl)c3F)c2cc1CN1CCC[C@H]1C(N)=O
[II] COc1cc2ncnc(Nc3cccc(Cl)c3F)c2cc1CN(C)[C@@H](C)C(N)=O
Sorting by half-life in descending order, would I or II appear first? Indicate your choice by writing its label.
I

----------
Listed next: entries and their corresponding pIC50.
Test: Inhibition of P450
Type: ADME
pIC50: −log10 of the molar value.

Smiles entry	Property label	Value observed
COc1cc2ncnc(Nc3cccc(Cl)c3F)c2cc1CN(C)[C@H](C)C(N)=O	pIC50	< 5.00

Provide only the value of recorded pIC50 for COc1cc2ncnc(Nc3cccc(Cl)c3F)c2cc1CN1CCC[C@H]1C(N)=O
< 5.00

Provide only the value of recorded pIC50 for COc1cc2ncnc(Nc3cccc(Cl)c3F)c2cc1CN(C)[C@@H](C)C(N)=O
< 5.00
